# Tested on: MDA-MB-231 cells
# ASSAY: MTS viability assay, MDA-MB-231 breast cancer cells
# Type: cell-based, human
# CONDITION NOTES: Table 5, 48 h, read-out: CC90 MDA-MB-231

{"CHEMICAL STRUCTURE": "CCCCCCCCCCCCCCCCOC[C@H](CO[C@H]1O[C@@H](CN)[C@H](OCc2ccccc2)[C@@H](O)[C@@H]1N)OC", "CC90 / µM": 4.9}
{"CHEMICAL STRUCTURE": "CCCCCCCCCCCCCCCCOC[C@H](CO[C@@H]1O[C@@H](CN)[C@H](O)[C@@H](O)[C@@H]1N)OC", "CC90 / µM": 7.5}
{"CHEMICAL STRUCTURE": "CCCCCCCCCCCCCCCCOC[C@H](CO[C@@H]1O[C@@H](CN)[C@H](OCc2ccccc2)[C@@H](O)[C@@H]1N)OC", "CC90 / µM": 4.9}

###

# Tested on: PC3 cells
# ASSAY: MTS viability assay, PC3 prostate cancer cells
# Assay type: cell-based, human
# CONDITION NOTES: Table 6; 48 h, MTS; read-out: PC3 CC50
As shown below, each of these molecules has a reported CC50 value.

{"MOLECULE": "CCCCCCCCCCCCCCCCOC[C@H](COC1O[C@H](CNCCCN)[C@@H](O)[C@H](O)[C@H]1N)OC (stereo partly shown)", "CC50 [µM]": 12.5}
{"MOLECULE": "CCCCCCCCCCCCCCCCOC[C@H](COC1O[C@H](CN)[C@@H](O)[C@H](O)[C@H]1NCCCCCCCCCCCCN)OC (stereo partly shown)", "CC50 [µM]": 8.5}
{"MOLECULE": "CCCCCCCCCCCCCCCCOC[C@H](COC1O[C@H](CN)[C@@H](O)[C@H](O)[C@H]1NCCCN)OC (stereo partly shown)", "CC50 [µM]": 14.5}
{"MOLECULE": "CCCCCCCCCCCCCCCCOC[C@H](COC1O[C@H](CNCCCCCCCCCCCCN)[C@@H](O)[C@H](O)[C@H]1N)OC (stereo partly shown)", "CC50 [µM]": 2}

###

As shown below, each of these compounds has a reported CC90 value.
# System: MiaPaCa2 cells
# ASSAY: MTS viability assay, MiaPaCa2 pancreas cancer cells
# Assay type: cell-based, human
# CONDITION NOTES: Table 1B, 48 h, read-out: CC90 values MiaPaCa2

{"COMPOUND": "CCCCCCCCCCCCCCCCOCC(CO[C@@H]1O[C@H](CN)[C@@H](O)[C@H](O)[C@H]1N)O[C@@H]1O[C@H](CN)[C@@H](O)[C@H](O)[C@H]1N (some centres unmarked)", "UNIT ABBREV": "µM", "OP": ">", "CC90": 30}
{"COMPOUND": "CCCCCCCCCCCCCCCCOCCCO[C@@H]1O[C@H](CN)[C@@H](O)[C@H](O)[C@H]1N", "UNIT ABBREV": "µM", "OP": "=", "CC90": 13}
{"COMPOUND": "CCCCCCCCCCCCCCCCOC[C@@H](CN=[N+]=[N-])O[C@@H]1O[C@H](CO)[C@@H](O)[C@H](O)[C@H]1N", "UNIT ABBREV": "µM", "OP": "=", "CC90": 18.5}
{"COMPOUND": "CCCCCCCCCCCCCCCCOCC(CO[C@@H]1O[C@H](CO)[C@@H](O)[C@H](O)[C@H]1N)NC(=O)CCCCCCCCCCCCCCC (some centres unmarked)", "UNIT ABBREV": "µM", "OP": ">", "CC90": 30}
{"COMPOUND": "CCCCCCCCCCCCCCCCOCC(N)CO[C@H]1O[C@H](CO)[C@@H](O)[C@H](O)[C@H]1N (some centres unmarked)", "UNIT ABBREV": "µM", "OP": "=", "CC90": 14}
{"COMPOUND": "CCCCCCCCCCCCCCCCOC[C@H](CO[C@@H]1O[C@H](CN)[C@@H](O)[C@H](O)[C@H]1N)OC", "UNIT ABBREV": "µM", "OP": "=", "CC90": 12}
{"COMPOUND": "CCCCCCCCCCCCCCCCOC[C@@H](CN)O[C@H]1O[C@H](CO)[C@@H](O)[C@H](O)[C@H]1N", "UNIT ABBREV": "µM", "OP": "=", "CC90": 28}
{"COMPOUND": "CCCCCCCCCCCCCCCCOC[C@H](CO[C@H]1O[C@H](CN)[C@@H](O)[C@H](O)[C@H]1N1C(=O)c2ccccc2C1=O)OC", "UNIT ABBREV": "µM", "OP": ">", "CC90": 30}

Origin of measurements: patent US10806746B2
